Hey, just so you know, these numbers are from paper PMC6789456.

Test system: Acanthamoeba castellanii Neff
procedure-details: In vitro effect against the trophozoite stage, Alamar Blue assay
Assay type: cell-based
settings: trophozoites, Alamar blue, 96 h, mean ± SD
Method: The anti-Acanthamoeba activity of molecules was evaluated against the Acanthamoeba castellanii Neff (ATCC 30010) type strain from the American Type Culture Collection and Acanthamoeba griffini obtained in previous studies. […] The anti-Acanthamoeba activities of the compounds were determined by the Alamar Blue assay as previously described. […]
measured-metric: IC50 (µM)

Worked cases, IC50 given:
compound	result-number
COC(=O)[C@]12CC[C@@H](C)[C@H](C)C1C1=CCC3[C@@]4(C)CC[C@H](OC(=O)c5ccc([N+](=O)[O-])cc5)C(C)(C)C4CC[C@@]3(C)[C@]1(C)CC2 (some centres unmarked)	21.4
COC(=O)[C@]12CC[C@@H](C)[C@H](C)C1C1=CCC3[C@@]4(C)CC[C@H](OC(C)=O)C(C)(C)C4CC[C@@]3(C)[C@]1(C)CC2 (some centres unmarked)	37.1
COC(=O)[C@]12CC[C@@H](C)[C@H](C)C1C1=CCC3[C@@]4(C)CC[C@H](OC(=O)c5ccccc5)C(C)(C)C4CC[C@@]3(C)[C@]1(C)CC2 (some centres unmarked)	33.5
C[C@@H]1CC[C@]2(C(=O)O)CC[C@]3(C)C(=CCC4[C@@]5(C)CCC(=O)C(C)(C)C5CC[C@]43C)C2[C@H]1C (some centres unmarked)	34.9

(P) C[C@H]1[C@H](C)CC[C@]2(C(=O)O)CC[C@]3(C)C(=CC[C@@H]4[C@@]5(C)CC[C@H](O)C(C)(C)[C@@H]5CC[C@]43C)[C@H]12
(Q) CC(=O)O[C@H]1CC[C@@]2(C)C(CC[C@]3(C)C2CC=C2C4[C@@H](C)[C@H](C)CC[C@]4(C(=O)O)CC[C@]23C)C1(C)C (some centres unmarked)
Req: Compare the recorded IC50 of P and Q ; state which is larger. Selection: enter the item's label.
Resp: P
(P: 40 µM, Q: 24.2 µM)
